target: T1, human L1CAM on cells (human, UniProt P32004 20-1257); assay: flow cytometry, MDA-MB-231 cells
T1 construct: Overexpressed on stably transfected HEK293T cells or endogenous on MCF-7 and MDA-MB-231 cells; also called HEK293T-hL1CAM
T1 sequence (P32004 20-1257): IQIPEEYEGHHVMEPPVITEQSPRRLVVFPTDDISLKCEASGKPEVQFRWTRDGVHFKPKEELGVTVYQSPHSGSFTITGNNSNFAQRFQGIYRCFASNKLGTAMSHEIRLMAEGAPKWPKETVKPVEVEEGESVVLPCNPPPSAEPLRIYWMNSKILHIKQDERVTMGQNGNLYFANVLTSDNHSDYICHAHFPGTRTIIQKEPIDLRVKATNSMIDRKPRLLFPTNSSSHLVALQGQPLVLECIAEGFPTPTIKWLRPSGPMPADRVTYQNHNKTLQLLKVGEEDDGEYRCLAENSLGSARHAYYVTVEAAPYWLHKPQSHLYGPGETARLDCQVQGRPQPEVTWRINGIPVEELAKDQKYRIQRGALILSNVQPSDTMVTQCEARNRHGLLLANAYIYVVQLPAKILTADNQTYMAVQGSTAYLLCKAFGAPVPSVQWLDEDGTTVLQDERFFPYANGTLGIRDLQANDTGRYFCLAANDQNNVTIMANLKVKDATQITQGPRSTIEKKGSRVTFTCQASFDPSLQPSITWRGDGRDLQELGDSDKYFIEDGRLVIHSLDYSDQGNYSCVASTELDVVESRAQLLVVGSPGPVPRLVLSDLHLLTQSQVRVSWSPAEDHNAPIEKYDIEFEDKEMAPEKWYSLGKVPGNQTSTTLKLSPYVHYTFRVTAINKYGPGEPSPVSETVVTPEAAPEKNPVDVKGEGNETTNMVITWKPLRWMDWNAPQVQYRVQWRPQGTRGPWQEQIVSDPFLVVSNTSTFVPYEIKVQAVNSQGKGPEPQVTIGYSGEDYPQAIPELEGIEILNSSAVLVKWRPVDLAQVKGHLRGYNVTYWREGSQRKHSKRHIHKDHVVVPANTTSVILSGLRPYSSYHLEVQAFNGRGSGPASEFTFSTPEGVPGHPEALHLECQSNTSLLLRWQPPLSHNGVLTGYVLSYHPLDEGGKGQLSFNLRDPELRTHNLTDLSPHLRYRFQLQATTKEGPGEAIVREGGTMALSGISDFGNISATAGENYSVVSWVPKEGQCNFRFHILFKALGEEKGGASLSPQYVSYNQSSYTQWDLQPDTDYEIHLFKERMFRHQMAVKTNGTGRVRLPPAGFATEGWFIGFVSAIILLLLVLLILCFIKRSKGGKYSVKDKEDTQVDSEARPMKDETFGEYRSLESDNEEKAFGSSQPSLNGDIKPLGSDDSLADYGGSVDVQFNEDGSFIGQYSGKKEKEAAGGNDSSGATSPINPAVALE

{"BINDER": "13F04 (antibody, V domains shown, mAb from wild-type mice, purified from the supernatant of a hybridoma clone; also called L1CAM mAb 13F04) VH: QVQLQQPGAELVKPGASVKLSCKASGYIFISYWMHWVKQRPGQGLEWIGEINPRNGRTNYNEKFKSKATLTVDKSSSTAYMQLTSLTSEDSAVYYCARGGDYGGSFDYWGQGTTLTVSS VL: DIVLTQSPASLAVSLGQRATISCRASESVDSYGNSFMHWYQQKPGQPPKLLIYRASNLESGIPARFSGSGSRTDFTLTVNPVEADDVATYYCQQSNEDPWTFGGGTKLEIK", "EC50 (nM)": 1.7}
{"BINDER": "14A10 (antibody, V domains shown, mAb from AlivaMab mice) VH: EVQMVESGGGLVQPGGSLRLSCAAPGFIFSSYNMNWVRQAPGKGLEWVSYISSSSSTTYYADSVKGRFTISRDNAKNSLYLQMNSLRDEDTAVYYCASLYSGYDYYYYYGMDVWGQGTTVTVSS VL: DIVMTQTPLSSPVSLGQPASISCRSSQSLVHSDGNTYLSWLQQRPGQPPRVLIYKISKRFSGVPDRFSGSGAGTDFTLKISRVEAEDVGVYYCMQATQFPFTFGPGTKVDIK", "EC50 (nM)": 8.9}
{"BINDER": "143G03 (antibody, V domains shown, mAb from wild-type mice; also called 143G03 WT; murine 143G03 mAb) VH: QVQLRQSGAELVRPGTSVKMSCKASGYTFTNYYIHWVKQRPGQGLEWIGKIGPGSGSPYYNGMFKDKATLTVDTSSSTAYMQLSSLTSEDSAVYFCARWLLPFDYWGQGTTLTVSS VL: QIVLSQSPGILSASPGEKVTMTCRASSSVNYMHWYQQKSGSSPKPWIFATSILASGVPPRFSGSGSGTSYSLTISSVEAEDTATYYCQQFSSDPLTFGAGTKLELK", "EC50 (nM)": 0.9}
{"BINDER": "13G04 (antibody, V domains shown, mAb from AlivaMab mice, purified from hybridoma supernatant) VH: QVQLVQSGAEVKKPGASVKVSCKASGYTFIGYYLHWVRQAPGQGLEWMGWINPNSGGTNSAQKFQGRVTMTRDTSISTTYMDLSRLRSDDTAVYYCARGGLERRDAFDIWGQGTLVTVSS VL: DIQMTQSPSTLSASVGDRVTITCRASQSISNWLAWYQQKPGKAPNLLIYKASSLESGVPSRFSGSGSGTEFTLTISSLQPDDFATYYCQQYDTYRTFGQGTKVEIK", "EC50 (nM)": 6.7}
